- experiment-description: qHTS to identify inhibitors of the type 1 interferon - major histocompatibility complex class I in skeletal muscle: primary screen against the NCATS Mechanism Interrogation Plate v5.0 (MIPE) Libary (AID 1347411);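 note: plate controls were vehicle for no effect and reference inhibitor for full effect; nearly all actives have a fitted effect of over 65% in size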
- measurement-context: iHSKM cells + IFN-b, HiBiT-tagged MHC-I luminescence, 24 h; series mostly up to 45.8 µM
Records with an inconclusive call do not appear. Calls of active or inactive are those of the source. Calls come from the whole dose curve; as a rule, active = well fitted inhibition curve with a large enough effect; inconclusive = small, poorly fitted or top-dose-only effect; inactive = no such curve, though single readings can be large or run the other way.
Entries annotated with measured activity change, negative = inhibition

Problem: Please look up its activity change, negative = inhibition: `CN1CCN(C(=O)[C@H]2[C@@H](C(=O)O)[C@H]3CC[C@@H]2O3)CC1`
Solution: -7.67% [at 8.44 µM] (inactive)

Problem: Next molecule: `Cc1cc(O)cc2c1[C@]1(C)CC[C@H]3C(C)(C)CCC[C@]3(C)[C@H]1C2`
Solution: -19.8% [at 5.1 µM] (inactive)

Problem: Next molecule: `C=C1C[C@@H]2CC[C@@]34C[C@H]5O[C@H]6[C@@H](O3)[C@H]3O[C@H](CC[C@@H]3O[C@H]6[C@H]5O4)CC(=O)C[C@@H]3[C@@H](OC)[C@@H](C[C@H](O)CN)O[C@H]3C[C@H]3O[C@@H](CC[C@@H]1O2)C[C@@H](C)C3=C`
Solution: -7.19% [at 8.44 µM] (inactive)
